Value source: the Deep4Chem optical property database

assay: photoluminescence quantum yield (fraction); solvent given as SMILES; settings: in CC#N
Returns one of met or not met; met when photoluminescence quantum yield is >= 0.2.

>>> discrete_label("CCN(CC)c1ccc2cc(/C=C(\\C#N)c3nc4ccccc4s3)c(=O)oc2c1")
"not met"
>>> discrete_label("COc1nc(Cl)nc(Nc2ccc3c4c(cccc24)C(=O)c2ccccc2-3)n1")
"met"
>>> discrete_label("COc1ccc(/C=C/C2=CC(/C=C/c3ccc(OC)c4ccccc34)=[O+][B-](F)(F)O2)c2ccccc12")
"not met"
>>> discrete_label("Cc1ccc(-c2ccc(/C=C/c3ccc(F)cc3)cn2)nc1")
"met"
>>> discrete_label("CCC1=C(C)C2=C(c3cc(C4=C5C(C)=C(CC)C(C)=[N+]5[B-](F)(F)n5c(C)c(CC)c(C)c54)cc(C4=C5C(C)=C(CC)C(C)=[N+]5[B-](F)(F)n5c(C)c(CC)c(C)c54)c3)c3c(C)c(CC)c(C)n3[B-](F)(F)[N+]2=C1C")
"met"
>>> discrete_label("COc1ccc(-c2nc3ccccc3nc2/C=C/N2CCCC2)s1")
"met"
>>> discrete_label("CN(C)c1nc(N(C)C)c2nc(C#N)n(Cc3ccccc3)c2n1")
"met"
>>> discrete_label("Cc1cc(O)c(-c2[nH]c(=O)n3c2-c2ccccc2C3=O)cc1Cl")
"met"
>>> discrete_label("CC(=O)Nc1ccc(/C=C2\\OC(=O)c3cc(N)ccc32)cc1")
"not met"
>>> discrete_label("F[B-]1(F)n2c(-c3cccs3)cc(-c3cccs3)c2N=C2C(c3cccs3)=CC(c3cccs3)=[N+]21")
"not met"
>>> discrete_label("COC(=O)c1nc(-c2cccc3ccccc23)oc1C")
"met"
>>> discrete_label("CCOC(=O)c1c2c3c(cccc3c3cc4ccccc4cc13)N(C)C2=O")
"met"
>>> discrete_label("CC(=O)O[B-]1(OC(C)=O)OC(/C=C/c2cccc3ccccc23)=CC(/C=C/c2cccc3ccccc23)=[O+]1")
"met"
>>> discrete_label("CC(=O)c1c2c(cc3c(N(C)C)cccc13)CCC2")
"met"
>>> discrete_label("CCCCCCc1ccc(-n2c3[n+](c4c5ccccc5c5ccccc5c42)[B-](C)(C)c2cc(-n4c5ccccc5c5ccccc54)ccc2-3)cc1")
"met"
>>> discrete_label("O=c1oc2ccccc2cc1/C=C/c1ccc([N+](=O)[O-])cc1")
"not met"
>>> discrete_label("C(=C\\c1c2ccccc2cc2ccccc12)/c1cccc2ccccc12")
"met"
>>> discrete_label("CCCCC(CC)CN1C(=O)c2cccc3c(C#Cc4ccc(N(c5ccc(C#Cc6ccc7c8c(cccc68)C(=O)N(CC(CC)CCCC)C7=O)cc5)c5ccc(C#Cc6ccc7c8c(cccc68)C(=O)N(CC(CC)CCCC)C7=O)cc5)cc4)ccc(c23)C1=O (stereo not drawn)")
"not met"
>>> discrete_label("Cn1cccc1-c1cc(C#N)ccc1C#N")
"not met"
>>> discrete_label("CN(C)c1ccc(/C=C/c2ccc(-c3cc(-c4ccccn4)nc(-c4ccccn4)c3)cc2)cc1")
"met"
>>> discrete_label("CN(C)c1cccc2c1C(=O)c1ccccc1-2")
"not met"
>>> discrete_label("Nc1cccc2c1-c1ccccc1C2=O")
"not met"
>>> discrete_label("CC(C)(C)c1ccc(-c2sc3c(-c4ccc(C(C)(C)C)cc4)c4n(c3c2-c2ccc(C(C)(C)C)cc2)[B-](F)(F)[N+]2=Cc3c(-c5ccc(C(C)(C)C)cc5)c5sc(-c6ccc(C(C)(C)C)cc6)c(-c6ccc(C(C)(C)C)cc6)c5n3[B-](F)(F)[N+]2=C4)cc1")
"met"
>>> discrete_label("Nc1ccccc1C(=O)O")
"met"
>>> discrete_label("CCOC(=O)c1sc(SC)c2c(=O)[nH]nnc12")
"not met"
>>> discrete_label("COc1ccc(-c2c(-c3ccc(OC)cc3)c3c4c(cccc4c2-c2ccccc2)C(=O)c2ccccc2-3)cc1")
"met"
>>> discrete_label("C[N+]1=C(/C=C/C2=C3Oc4c(cc5c6c4CCCN6CCC5)C(c4ccccc4C(=O)O)=C3CCC2)C(C)(C)c2ccccc21")
"met"
>>> discrete_label("CN(C)c1ccc(C#Cc2ccc(C=O)cc2)cc1")
"not met"
>>> discrete_label("C[Si](C)(c1cccc2ccccc12)[Si](C)(C)[Si](C)(C)[Si](C)(C)c1c2ccccc2cc2ccccc12")
"not met"
>>> discrete_label("CC(=O)Nc1cccc2c1C#Cc1c(cccc1C(=O)N(C)C)OCCCO2")
"not met"
>>> discrete_label("Nc1ccc2[nH]ncc2c1")
"not met"
>>> discrete_label("C=Cc1cc2ccc(N(CC)CC)cc2oc1=O")
"met"
>>> discrete_label("C=Cc1cc2ccc(OC(=O)c3ccccc3)cc2oc1=O")
"met"
>>> discrete_label("CC1=CC(C)=[N+]2C1=C(c1ccc(N(C)C)cc1)c1c(C)cc(C)n1[B-]2(F)F")
"not met"
>>> discrete_label("F[B-]1(F)n2c(c3cccc4cccc2c43)=Nc2ccc3ccccc3[n+]21")
"met"
>>> discrete_label("COC(=O)C(NC(=O)OC(C)(C)C)c1ccc2oc(-c3cccc(Oc4ccccc4)c3)nc2c1 (stereo not drawn)")
"met"
>>> discrete_label("N#CC(C#N)=Cc1ccc2c(c1)c1ccccc1n2-c1cc2ccccc2c2ccccc12")
"not met"

###

Listing: photoluminescence quantum yield of selected compounds
test: photoluminescence quantum yield (fraction); solvent given as SMILES; conditions: in C1CCCCC1
EXPERIMENTAL ENDPOINT: photoluminescence quantum yield

>>> recorded_number("CN(C)c1ccc(/C=C/C=C/c2ccc([N+](=O)[O-])c(O)c2)cc1")
0.13
>>> recorded_number("Nc1cccc2c1-c1ccccc1C2=O")
0.035
>>> recorded_number("F[B-]1(F)n2c(-c3ccccc3)cnc2-c2cccc[n+]21")
0.33
>>> recorded_number("CCC1=C(C)C2=Cc3cc(I)cn3[B-](F)(F)[N+]2=C1C")
0.113
>>> recorded_number("CCC1=C(C)C2=C(C)c3cccn3[B-](F)(F)[N+]2=C1C")
0.96
>>> recorded_number("CN(C)c1ccc2nc(-c3ccc(C=C4C(=O)c5ccccc5C4=O)cc3)sc2c1")
0.13
>>> recorded_number("O=P1(c2ccccc2)C(c2cc(C(F)(F)F)cc(C(F)(F)F)c2)=Cc2c3ccc4cccc5ccc(c6cc(-c7ccccc7)n1c26)c3c45 (stereo unspecified)")
0.54
>>> recorded_number("COc1ccc(-c2nc3ccccc3nc2/C=C/N2CCCC2)s1")
0.072
>>> recorded_number("COc1ccc2c(c1)c1c(c3cc(OC)ccc32)=[N+]2C(=C(c3c(C)cc(C)cc3C)c3cc4c5cc(OC)ccc5c5ccc(OC)cc5c4n3[B-]2(F)F)C=1")
0.08
>>> recorded_number("CNc1ccc2c(c1)C(=O)c1ccccc1-2")
0.0073
>>> recorded_number("Nc1ccc2c(c1)-c1ccccc1C2=O")
0.006

###

experiment: photoluminescence quantum yield (fraction); solvent given as SMILES; settings: in O
EXPERIMENTAL ENDPOINT: photoluminescence quantum yield

>>> recorded_number("COc1ccc(-c2cc(N3CCCCC3)c(C#N)c3c2-c2cccc4cccc-3c24)cc1")
0.36
>>> recorded_number("CCn1c(-c2ccc(-c3ccc(-c4ccc(-c5n(CC)c6cc(C)ccc6[n+]5CC)cc4)cc3)cc2)[n+](CC)c2ccc(C)cc21")
0.72
>>> recorded_number("[C-]#[N+]c1ccc(-c2ccc(N)cc2)cc1")
0.0088
>>> recorded_number("CCOC(=O)c1ccc(NC(=O)COc2cc3c4c([nH]c3c(C)c2C)C(=O)CCC4)cc1")
0.037
>>> recorded_number("CC[N+]1(CC)CN2C(=N1)C(C(=O)O)=Cc1cc(SC)ccc12")
0.308
>>> recorded_number("CN(C)c1ccc2c(-c3cc(C(=O)[O-])ccc3C(=O)[O-])c3ccc(=[N+](C)C)cc-3oc2c1")
0.45
>>> recorded_number("Cc1cc(C)nc(N)n1")
0.048
>>> recorded_number("Cc1cccc2nc3c(=O)[nH]c(=O)[nH]c3nc12")
0.053
>>> recorded_number("Oc1c(-c2cccs2)cccc1-c1nc2ccccc2s1")
0.01
>>> recorded_number("Cc1cc(/N=C/c2cc(S(=O)(=O)[O][Na])ccc2O)c(/N=C/c2cc(S(=O)(=O)[O][Na])ccc2O)cc1C")
0.56
>>> recorded_number("COc1cccc(OC)c1-c1c2ccc(=[N+]3CCNCC3)cc-2oc2cc(N3CCNCC3)ccc12")
0.14
>>> recorded_number("CCNc1ccc2c(c1)C(C)(C)C(=O)C=C2")
0.18
>>> recorded_number("O=C([O-])c1ccccc1-c1c2cc(Br)c(=O)c(Br)c-2oc2c(Br)c([O-])c(Br)cc12")
0.2
>>> recorded_number("Nc1nc2c([nH]c(=O)n2[C@H]2C[C@H](O)[C@@H](CO)O2)c(=O)[nH]1")
0.00013
>>> recorded_number("CC[N+]1(CC)CN2C(=N1)C(C(=O)O)=Cc1c(OC)ccc(OC)c12")
0.018
>>> recorded_number("COCCOCCOc1cc(C=O)c(OCCOCCOC)cc1C=O")
0.55
>>> recorded_number("c1ccc2[nH]ccc2c1")
0.93
>>> recorded_number("CN(C)c1ccc2c3c(c(=O)oc2c1)C=c1cc2c(cc1O3)=[N+](CCC(=O)O)CCC2")
0.041
>>> recorded_number("CCCCn1c(-c2ccc(-c3ccc(-c4ccc(-c5n(CCCC)c6ccccc6[n+]5CCCC)cc4)cc3)cc2)[n+](CCCC)c2ccccc21")
0.77
>>> recorded_number("O=C([O-])c1ccc(C2=c3cc4c5c(c3Oc3c2cc2c6c3CCCN6CCC2)CCC[N+]=5CCC4)c(C(=O)[O-])c1")
0.6
>>> recorded_number("CC1=CC2=Nc3nc(C)[n+](C)cc3CN2C=C1")
0.79
